From: patent US10413632B2

Consider the following compounds; for each one, report its solubility (w/w) in PEI.
# value in %; strip the unit string

Inquiry: Need solubility (w/w) in PEI, item Nc1nc(N)c2nc[nH]c2n1 [DAP, diaminopurine]
Reply text: 18.8

Inquiry: solubility (w/w) in PEI lookup needed for N[C@@H](Cc1c[nH]c2ccccc12)C(=O)O [TRP, L-Tryptophan] , thanks.
Reply text: 46.46

Inquiry: Which solubility (w/w) in PEI is listed for Nc1cc(O)nc(N)n1 [DAHP, 2,4-diamino-6-hydroxypyrimidine] ?
Reply text: 13.8

Inquiry: I'd like to know its solubility (w/w) in PEI. The compound in question is N[C@@H](Cc1ccccc1)C(=O)O [PHE, L-phenylalanine]
Reply text: 61.24

Inquiry: Name the recorded solubility (w/w) in PEI for N[C@@H](CS)C(=O)O [CYS, L-cysteine] .
Reply text: 18.2
